Plant response rating, Soybean by entry:
# Test system: soybean (Glycine max)
# Method Description: Test B pre-/postemergence plant response
# Assay type: in vivo
# Details: Postemergence, 250 g ai/ha; scale 0 to 100 (0 no effect, 100 complete control)
Observable: Plant response rating, Soybean

CCCCn1c(CCC)ncc(C(=O)C2=C(O)CCCC2=O)c1=O [Compound 75]    98
O=C1CCCC(O)=C1C(=O)c1cnc(C2CCCC2)n(-c2ccccc2)c1=O [Compound 92]    98
Cc1ccc(Cl)cc1-n1c(-c2ccccc2)ncc(C(=O)C2=C(O)CCCC2=O)c1=O [Compound 52]    98
CCOCCn1c(-c2ccccc2)ncc(C(=O)C2=C(O)CCCC2=O)c1=O [Compound 96]    98
CCCCc1ncc(C(=O)C2=C(O)CCCC2=O)c(=O)n1-c1ccccc1C [Compound 62]    95
Cc1ccc(F)c(-n2c(-c3ccccc3)ncc(C(=O)C3=C(O)CCCC3=O)c2=O)c1 [Compound 51]    95
CCCc1ncc(C(=O)C2=C(O)CCCC2=O)c(=O)n1-c1cccc(C)c1 [Compound 79]    98

====

# System: galium (catchweed bedstraw, Galium aparine)
# Method Description: Test B pre-/postemergence plant response
# Assay type: in vivo
# Details: Preemergence, 125 g ai/ha; scale 0 to 100, 0 no effect, 100 complete control
# Description: […] Treated plants and controls were maintained in a greenhouse for 13 to 15 days, after which time all treated plants were visually evaluated and compared to controls. […]
Plant response rating, Galium by entry:
Observable: Plant response rating, Galium

COCCCn1c(-c2cc(F)cc(F)c2)ncc(C(=O)C2=C(O)C3CCC(C3)C2=O)c1=O (centres unmarked)    98
Cc1ccc(Cl)cc1-n1c(-c2ccccc2)ncc(C(=O)C2=C(O)CCCC2=O)c1=O    70
CCCCc1ncc(C(=O)C2=C(O)CCCC2=O)c(=O)n1-c1ccccc1C    0
O=C1CCCC(O)=C1C(=O)c1cnc(-c2cccc(Br)c2)n(-c2ccccc2)c1=O    0
CCc1cccc(-n2c(-c3ccccc3)ncc(C(=O)C3=C(O)CCCC3=O)c2=O)c1    90

====

# System: lambsquarters (Chenopodium album)
# Method Description: Test B pre-/postemergence plant response
# Type: in vivo
# Details: Postemergence, 31 g ai/ha; 0 to 100 scale (0 no effect, 100 complete control)
# From the text: […] Treated plants and controls were maintained in a greenhouse for 13 to 15 days, after which time all treated plants were visually evaluated and compared to controls. […]
Observable: Plant response rating, Lambsquarters

O=C1CCCC(O)=C1C(=O)c1cnc(-c2ccccc2)n(C2CCOCC2)c1=O [Compound 129]    90
CCCCn1c(-c2ccccc2)ncc(C(=O)C2=C(O)C3CCC(C3)C2=O)c1=O (stereo not shown) [Compound 240]    98
O=C1CCCC(O)=C1C(=O)c1cnc(-c2ccccc2)n(C2CCCCCC2)c1=O [Compound 130]    98
CCCn1c(-c2cc(Cl)cc(Cl)c2)ncc(C(=O)C2=C(O)CCCC2=O)c1=O [Compound 173]    98

====

Plant response rating, Ragweed by entry:
# Tested on: ragweed (common ragweed, Ambrosia elatior)
# Method Description: Test B pre-/postemergence plant response
# Format: in vivo
# Details: Postemergence, 31 g ai/ha; 0 to 100 scale (0 no effect, 100 complete control)
Observable: Plant response rating, Ragweed

CCCn1c(-c2cc(Cl)cc(Cl)c2)ncc(C(=O)C2=C(O)CCCC2=O)c1=O    55
CCCn1c(-c2cccc(F)c2)ncc(C(=O)C2=C(O)CCCC2=O)c1=O    70
O=C1CCCC(O)=C1C(=O)c1cnc(-c2ccsc2)n(C2CCOCC2)c1=O    85
CCn1c(-c2cccc(F)c2)ncc(C(=O)C2=C(O)C3CCC(C3)C2=O)c1=O (centres unmarked)    80
CCCn1c(-c2ccccc2)ncc(C(=O)C2=C(O)C3CCC(C3)C2=O)c1=O (centres unmarked)    80

====

# Tested on: canarygrass (Phalaris minor)
# Method Description: Test B postemergence plant response
# Type: in vivo
# Details: Postemergence, 31 g ai/ha; 0 to 100 scale (0 no effect, 100 complete control)
Observable: Plant response rating, Canarygrass

O=C1CCCC(O)=C1C(=O)c1cnc(-c2ccccc2)n(C2CC[S+]([O-])CC2)c1=O (mixture of isomers) [Compound 169]    40
CCCc1ncc(C(=O)C2=C(O)CCCC2=O)c(=O)n1-c1ccccc1 [Compound 217]    0
CCn1c(-c2cc(F)cc(F)c2)ncc(C(=O)C2=C(O)CCCC2=O)c1=O [Compound 122]    10
CCCn1c(-c2cc(Cl)cc(Cl)c2)ncc(C(=O)C2=C(O)CCCC2=O)c1=O [Compound 173]    10

====

# Test system: sunflower (common oilseed sunflower, Helianthus annuus)
# Method Description: Test B pre-/postemergence plant response
# Type: in vivo
# Details: Preemergence, 31 g ai/ha; scale 0 to 100 (0 no effect, 100 complete control)
Observable: Plant response rating, Sunflower

O=C1CCCC([O-])=C1C(=O)c1cnc(-c2ccccc2)n(-c2ccccc2)c1=O.[K+]    50
CC(C)Cc1ncc(C(=O)C2=C(O)CCCC2=O)c(=O)n1-c1ccccc1    0
COCCCn1c(-c2cc(F)cc(F)c2)ncc(C(=O)C2=C(O)C3CCC(C3)C2=O)c1=O (stereo not shown)    80
CCn1c(-c2ccccc2)ncc(C(=O)C2=C(O)CCCC2=O)c1=O    60

====

Plant response rating, Ducksalad by entry:
# Tested on: ducksalad (Heteranthera limosa)
# Method Description: Test B flooded paddy test
# Assay type: in vivo
# Details: Flood (flooded paddy test), 62 g ai/ha; scale 0 to 100, 0 is no effect, 100 is complete control; 13 to 15 days
Observable: Plant response rating, Ducksalad

Cc1cccc(-n2c(-c3ccccc3)ncc(C(=O)C3=C(O)CCCC3=O)c2=O)c1C    75
Cc1cccc(C)c1-n1c(-c2ccccc2)ncc(C(=O)C2=C(O)CCCC2=O)c1=O    60
COc1ccccc1-n1c(-c2ccccc2)ncc(C(=O)C2=C(O)CCCC2=O)c1=O    0
O=C1CCCC([O-])=C1C(=O)c1cnc(-c2ccccc2)n(-c2ccc(Cl)cc2)c1=O.[K+]    0

====

# System: black mustard (Brassica nigra)
# Method Description: Test D pre-/postemergence plant response
# Type: in vivo
# Details: Postemergence, 125 g ai/ha; scale 0 to 100 (0 no effect, 100 complete control)
Plant response rating, Black Mustard by entry:
Observable: Plant response rating, Black Mustard

O=C1CCCC(O)=C1C(=O)c1cnc(-c2cccnc2)n(-c2ccccc2)c1=O    100
O=C1CCCC(O)=C1C(=O)c1cnc(C2CC2)n(-c2ccccc2)c1=O    100
Cc1ccc(F)c(-n2c(-c3ccccc3)ncc(C(=O)C3=C(O)CCCC3=O)c2=O)c1    100
Cc1ccc(Cl)cc1-n1c(-c2ccccc2)ncc(C(=O)C2=C(O)CCCC2=O)c1=O    98

====

Plant response rating, Foxtail, Green by entry:
# System: green foxtail (Setaria viridis)
# Method Description: Test B pre-/postemergence plant response
# Type: in vivo
# Details: 31 g ai/ha, postemergence; scale 0 to 100, 0 is no effect, 100 is complete control
Observable: Plant response rating, Foxtail, Green

O=C1CCCC(O)=C1C(=O)c1cnc(-c2ccsc2)n(C2CCCCC2)c1=O [Compound 99]    50
O=C1CCCC(O)=C1C(=O)c1cnc(C2CCCC2)n(-c2ccccc2)c1=O [Compound 92]    75
CCCc1ncc(C(=O)C2=C(O)CCCC2=O)c(=O)n1CCC [Compound 72]    10
CCCCn1c(CCC)ncc(C(=O)C2=C(O)CCCC2=O)c1=O [Compound 75]    65
CCCn1c(-c2ccsc2)ncc(C(=O)C2=C(O)CCCC2=O)c1=O [Compound 93]    50
O=C1CCCC(O)=C1C(=O)c1cnc(C2CC2)n(-c2ccccc2)c1=O [Compound 87]    75
CCCCc1ncc(C(=O)C2=C(O)CCCC2=O)c(=O)n1-c1ccccc1C [Compound 62]    40
O=C1CCCC(O)=C1C(=O)c1cnc(-c2cccs2)n(-c2ccccc2)c1=O [Compound 66]    80
CCn1c(-c2ccccc2)ncc(C(=O)C2=C(O)CCCC2=O)c1=O [Compound 49]    50
COCCn1c(-c2cccs2)ncc(C(=O)C2=C(O)CCCC2=O)c1=O [Compound 108]    5
CCCc1ncc(C(=O)C2=C(O)CCCC2=O)c(=O)n1-c1cccc(C)c1 [Compound 79]    60
CC(C)Cc1ncc(C(=O)C2=C(O)CCCC2=O)c(=O)n1-c1ccccc1 [Compound 68]    40
Cc1cccc(-n2c(-c3ccccc3)ncc(C(=O)C3=C(O)CCCC3=O)c2=O)c1F [Compound 58]    75
O=C1CCCC(O)=C1C(=O)c1cnc(-c2cccc(Br)c2)n(-c2ccccc2)c1=O [Compound 69]    95
